# tested target: KIT (Homo sapiens)
# Construct: made in house
# Sequence (P10721 26-976, species assumed): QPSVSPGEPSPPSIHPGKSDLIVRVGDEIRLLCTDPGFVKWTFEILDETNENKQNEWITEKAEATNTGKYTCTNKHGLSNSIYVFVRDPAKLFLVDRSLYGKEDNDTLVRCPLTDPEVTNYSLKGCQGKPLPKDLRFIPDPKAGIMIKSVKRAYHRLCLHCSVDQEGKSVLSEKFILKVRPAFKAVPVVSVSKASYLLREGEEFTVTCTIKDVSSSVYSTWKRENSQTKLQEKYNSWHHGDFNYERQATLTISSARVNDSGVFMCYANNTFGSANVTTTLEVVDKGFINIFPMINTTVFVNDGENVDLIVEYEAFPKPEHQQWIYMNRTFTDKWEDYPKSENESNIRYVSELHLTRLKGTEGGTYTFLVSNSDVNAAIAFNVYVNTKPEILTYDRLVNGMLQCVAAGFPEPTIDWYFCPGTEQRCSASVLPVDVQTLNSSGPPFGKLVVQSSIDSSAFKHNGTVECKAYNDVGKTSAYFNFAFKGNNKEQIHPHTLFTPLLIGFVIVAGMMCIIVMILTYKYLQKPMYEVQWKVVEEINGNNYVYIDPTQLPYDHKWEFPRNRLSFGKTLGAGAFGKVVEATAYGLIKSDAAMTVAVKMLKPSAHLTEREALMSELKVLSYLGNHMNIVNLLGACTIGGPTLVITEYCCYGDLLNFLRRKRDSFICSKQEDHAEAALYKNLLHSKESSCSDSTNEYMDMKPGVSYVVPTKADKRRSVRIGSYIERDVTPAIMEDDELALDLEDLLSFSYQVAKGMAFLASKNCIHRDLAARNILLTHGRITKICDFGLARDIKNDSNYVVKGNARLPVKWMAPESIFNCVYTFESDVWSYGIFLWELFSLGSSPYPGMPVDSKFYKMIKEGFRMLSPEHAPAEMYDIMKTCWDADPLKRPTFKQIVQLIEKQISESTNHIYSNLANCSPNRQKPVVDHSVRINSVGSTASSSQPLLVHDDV
# experimental details: KIT kinase assay, 33P-ATP incorporation, residual activity
# Format: biochemical
# setup conditions: tested at 25 micromolar
property: c-Kit

# compound, tested target, c-Kit
records = [
    ("CCn1c2ccccc2c2ccc(CN3C(=O)N(C[C@H]4O[C@@H](n5nnc(C(N)=O)c5-c5ccccc5)[C@H](O)[C@@H]4O)C(=O)C3Cc3ccccc3)cc21 (stereo partly drawn)", "KIT (Homo sapiens)", 6),
]

I = Nc1ncnc2c1ncn2[C@@H]1O[C@H](CN2C(=O)C(Cc3ccccc3)N(Cc3ccccc3Sc3ccc(Cl)cc3)C2=O)[C@@H](O)[C@H]1O (stereo partly drawn)
II = CCCCCCCCSc1nc2cc(C(N)=O)ccc2n1C[C@H]1O[C@@H](n2nnc(C(N)=O)c2-c2ccccc2)[C@H](O)[C@@H]1O
[Q] Just tell me: smaller c-Kit value, I or II ? Returns: label corresponding to the selected item.
[A] I
(I: 13, II: 53)

----------
# tested target: MET (Homo sapiens)
# Construct: made in house
# Sequence (P08581 25-1390): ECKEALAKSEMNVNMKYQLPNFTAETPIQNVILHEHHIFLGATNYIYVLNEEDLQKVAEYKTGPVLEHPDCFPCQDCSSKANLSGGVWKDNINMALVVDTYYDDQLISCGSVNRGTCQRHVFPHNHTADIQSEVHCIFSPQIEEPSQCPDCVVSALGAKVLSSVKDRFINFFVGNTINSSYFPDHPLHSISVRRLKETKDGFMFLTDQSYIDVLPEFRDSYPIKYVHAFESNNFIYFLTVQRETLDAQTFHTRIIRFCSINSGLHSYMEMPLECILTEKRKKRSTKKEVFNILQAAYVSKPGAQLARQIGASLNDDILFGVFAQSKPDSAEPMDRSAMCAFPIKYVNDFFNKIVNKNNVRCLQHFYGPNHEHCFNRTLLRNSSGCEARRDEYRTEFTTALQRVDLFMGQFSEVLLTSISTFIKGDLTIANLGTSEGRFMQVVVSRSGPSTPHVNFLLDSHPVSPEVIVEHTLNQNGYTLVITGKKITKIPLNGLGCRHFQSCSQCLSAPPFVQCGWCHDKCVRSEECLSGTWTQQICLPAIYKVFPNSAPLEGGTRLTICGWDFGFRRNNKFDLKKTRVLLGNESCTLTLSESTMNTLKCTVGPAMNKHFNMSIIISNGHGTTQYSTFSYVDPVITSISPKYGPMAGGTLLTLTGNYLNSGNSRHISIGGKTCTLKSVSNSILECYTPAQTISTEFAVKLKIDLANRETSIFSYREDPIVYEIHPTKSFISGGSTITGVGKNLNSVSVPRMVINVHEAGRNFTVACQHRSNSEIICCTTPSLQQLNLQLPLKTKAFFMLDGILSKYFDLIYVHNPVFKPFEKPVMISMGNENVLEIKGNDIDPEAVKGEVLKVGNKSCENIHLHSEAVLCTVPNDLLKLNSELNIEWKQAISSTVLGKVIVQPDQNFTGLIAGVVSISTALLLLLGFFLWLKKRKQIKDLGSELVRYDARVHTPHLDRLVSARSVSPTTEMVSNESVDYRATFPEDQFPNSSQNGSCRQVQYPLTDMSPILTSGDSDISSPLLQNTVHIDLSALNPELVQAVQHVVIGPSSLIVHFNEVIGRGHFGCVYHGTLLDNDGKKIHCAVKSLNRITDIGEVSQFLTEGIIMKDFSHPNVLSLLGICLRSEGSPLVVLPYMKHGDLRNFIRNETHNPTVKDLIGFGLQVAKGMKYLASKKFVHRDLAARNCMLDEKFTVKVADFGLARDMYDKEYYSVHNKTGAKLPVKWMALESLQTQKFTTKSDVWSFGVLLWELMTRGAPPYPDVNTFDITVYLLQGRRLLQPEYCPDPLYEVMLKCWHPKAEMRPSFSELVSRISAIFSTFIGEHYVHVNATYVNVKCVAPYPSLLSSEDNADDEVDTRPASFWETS
# experimental details: MET kinase assay, 33P-ATP incorporation, residual activity
# Type: biochemical
# Set-up: key: % residual kinase activity (100% = no inhibitor)
# setup conditions: tested at 25 micromolar
# Description: Compounds were tested in vitro as follows. Recombinant protein kinases, which were expressed as fusion proteins in SF9 insect cells or E. coli, were used for all in vitro assays. The purity and identity of each kinase was checked by SDS-PAGE/silver staining and by western blot analysis with specific antibodies. […] The reaction cocktails were incubated at 30° C. for 80 minutes. […] Incorporation of ^33Pi was determined with a microplate scintillation counter. […]
property: MET

# molecule, tested target, MET
measured = [
    ("Nc1ncnc2c1ncn2[C@@H]1O[C@H](CN2C(=O)C(Cc3ccccc3)N(Cc3cccn3S(=O)(=O)c3ccccc3)C2=O)[C@@H](O)[C@H]1O (some centres unmarked)", "MET (Homo sapiens)", 31),
    ("CCCCCCCCOc1ccc(-c2nc3cc(C(N)=O)ccc3n2C[C@H]2O[C@@H](n3nnc(C(N)=O)c3-c3ccccc3)[C@H](O)[C@@H]2O)cc1", "MET (Homo sapiens)", 72),
    ("CCCCCCCCSc1nc2cc(C(N)=O)ccc2n1C[C@H]1O[C@@H](n2nnc(C(N)=O)c2-c2ccccc2)[C@H](O)[C@@H]1O", "MET (Homo sapiens)", 78),
    ("CCCc1c(C(N)=O)nnn1[C@@H]1O[C@H](Cn2c(-c3ccc(F)c(C(F)(F)F)c3)nc3cc(C(N)=O)ccc32)[C@@H](O)[C@H]1O", "MET (Homo sapiens)", 103),
    ("CCn1c2ccccc2c2ccc(CN3C(=O)N(C[C@H]4O[C@@H](n5nnc(C(N)=O)c5-c5ccccc5)[C@H](O)[C@@H]4O)C(=O)C3Cc3ccccc3)cc21 (some centres unmarked)", "MET (Homo sapiens)", 27),
    ("Nc1ncnc2c1ncn2[C@@H]1O[C@H](Cn2c(-c3ccc(OCc4ccccc4)cc3)nc3ccccc32)[C@@H](O)[C@H]1O", "MET (Homo sapiens)", 88),
]

P = Nc1ncnc2c1ncn2[C@@H]1O[C@H](CN2C(=O)C(Cc3ccccc3)N(Cc3cccs3)C2=O)[C@@H](O)[C@H]1O (some centres unmarked)
Q = Cc1cccc(CSc2nc3cc(C(N)=O)ccc3n2C[C@H]2O[C@@H](n3cnc4c(N)ncnc43)[C@H](O)[C@@H]2O)c1
[Q] Just tell me: smaller MET value, P or Q ? Returns: label corresponding to the selected item.
[A] P

P = Nc1ncnc2c1ncn2[C@@H]1O[C@H](CN2C(=O)C(Cc3ccccc3)N(Cc3ccccc3[N+](=O)[O-])C2=O)[C@@H](O)[C@H]1O (some centres unmarked)
Q = CCCc1c(C(N)=O)nnn1[C@@H]1O[C@H](CNCc2nc3cc(C(N)=O)ccc3n2-c2ccc(-c3ccccc3)cc2)[C@@H](O)[C@H]1O
[Q] Just tell me: smaller MET value, P or Q ? Returns: label corresponding to the selected item.
[A] P

From: patent US8673586B2
